Read-out: E-selectin (Homo sapiens) (UniProt P16581)
Sequence (P16581 whole entry, looked up): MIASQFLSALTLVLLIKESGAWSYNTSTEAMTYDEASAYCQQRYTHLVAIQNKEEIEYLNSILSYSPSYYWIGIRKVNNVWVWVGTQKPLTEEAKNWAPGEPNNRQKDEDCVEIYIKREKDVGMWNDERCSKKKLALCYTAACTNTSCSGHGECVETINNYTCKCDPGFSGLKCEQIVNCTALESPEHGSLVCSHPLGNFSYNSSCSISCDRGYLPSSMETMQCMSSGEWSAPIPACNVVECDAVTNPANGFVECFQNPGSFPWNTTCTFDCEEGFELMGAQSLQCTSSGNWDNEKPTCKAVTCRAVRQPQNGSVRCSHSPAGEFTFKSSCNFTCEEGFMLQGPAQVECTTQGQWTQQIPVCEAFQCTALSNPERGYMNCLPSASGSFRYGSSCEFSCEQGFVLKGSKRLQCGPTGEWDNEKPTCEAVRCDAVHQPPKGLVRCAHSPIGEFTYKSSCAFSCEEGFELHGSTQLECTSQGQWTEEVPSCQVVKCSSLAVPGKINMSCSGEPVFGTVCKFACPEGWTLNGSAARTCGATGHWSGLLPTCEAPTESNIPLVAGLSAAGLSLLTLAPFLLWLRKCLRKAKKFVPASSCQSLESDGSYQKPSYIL
assay-overview: BSK_LPS_Eselectin: BioMAP Diversity Plus: LPS Assay for Eselectin Biomarker Activity (AID 2283077)
condition-info: primary human HUVEC with PBMC; actives raise or lower the signal
The source made the active and inactive calls. The calls were made as follows: active = hit-call score of the fitted dose curve at least 0.9, where 1 is the maximum; inactive = score below 0.9.
Your response should consist of one outcome taken from Y = active, N = inactive

Example entries and their recorded answers appear below.
Asked: Each compound tested received a call. Report the one for "CCOC(=O)[C@H](C)Oc1ccc(Oc2nc3ccc(Cl)cc3o2)cc1" .
Given back: N

Asked: Each compound tested received a call. Report the one for CCC(O)=C1C(=O)CC(C(=O)O)CC1=O (stereo unspecified) .
Given back: N

Asked: Each compound tested received a call. Report the one for CCOC(=O)C(C)Oc1ccc(Oc2nc3ccc(Cl)cc3o2)cc1 (stereo unspecified) .
Given back: N

Asked: Each compound tested received a call. Report the one for "COCCO" .
Given back: N

Asked: Each compound tested received a call. Report the one for "CCCN(CCC)c1c([N+](=O)[O-])cc(C(F)(F)F)c(N)c1[N+](=O)[O-]" .
Given back: N

Asked: Each compound tested received a call. Report the one for CCC(C)OC(=O)N1CCCCC1CCO (stereo unspecified) .
Given back: N

Asked: Each compound tested received a call. Report the one for "CC(C)CCCCCCc1ccc(O)cc1" .
Given back: Y

Asked: Each compound tested received a call. Report the one for "c1ccc(Nc2ccccc2)cc1" .
Given back: N

Further cases:
Asked: Each compound tested received a call. Report the one for CCCCCCC(C)OC(=O)COc1nc(F)c(Cl)c(N)c1Cl (stereo unspecified) .
Given back: Y

Asked: Each compound tested received a call. Report the one for "COC(=O)c1ccc(CNS(C)(=O)=O)cc1S(=O)(=O)NC(=O)Nc1nc(OC)cc(OC)n1" .
Given back: N

Asked: Each compound tested received a call. Report the one for "CN(C)C(=O)Nc1ccc(Cl)c(Cl)c1" .
Given back: N
